From: PubChem BioAssay

# assayed.target: Calcium-dependent protein kinase 1 (Plasmodium falciparum (isolate 3D7))
# measurement.protocol: PfCDPK1 kinase inhibitors, biochemical, TCAMS library (AID 1159585);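 note: inhibitors leave more ATP so luminescence rises with inhibition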
# assay.conditions: recombinant PfCDPK1, Kinase-Glo ATP depletion luminescence
Entries with a potency or affinity are not part of this list. Activity calls are given as the source filed them. No cut-off is given here; in the data, nearly all actives have IC50 up to about 0.98 µM.
value.kind: outcome

INSERT INTO results (compound, value_kind, assay_value) VALUES
  ('Cc1ccc(CN2CCC(C(=O)Nc3ccc(-c4cc5ccccc5[nH]4)cc3)CC2)o1', 'outcome', 'inactive'),
  ('CC(C)c1ccc(OCCCON2C(N)=NC(N)=NC2(C)C)cc1', 'outcome', 'inactive'),
  ('CCCOc1ccc(C(=O)Nc2nonc2-c2ccc(OC)c(OC)c2)cc1', 'outcome', 'inactive'),
  ('CC1CN(Cc2cccc(-c3ccc(-c4nc5ccccc5[nH]4)cc3)c2)CC(C)O1 (stereo not given)', 'outcome', 'inactive'),
  ('C=C[C@]1(C)C[C@@H](OC(=O)CS[C@H]2CN3CC[C@H]2C3)[C@@]2(C)C3C(=O)CC[C@@]3(CC[C@H]2C)[C@@H](C)[C@@H]1O (stereo not given in full)', 'outcome', 'inactive');

---

# measurement.protocol: inhibition of 3D7 malaria parasite growth – strain 3D7 (AID 2306);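 note: 0% = DMSO wells and 100% = chloroquine plus artemisinin control wells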
# assay.conditions: P. falciparum 3D7 erythrocytic growth, LDH absorbance, 72 h; at 2 µM; stronger effect = higher value
value.kind: growth inhibition (%)

INSERT INTO assay_data (compound, assay_value) VALUES
  ('O=S(=O)(Nc1cccc(CCN2CCCCC2CCN2CCCC2)c1)c1ccc(-c2ccccc2)cc1 (stereo not given)', 99),
  ('COc1ccc2nccc([C@@H](O)CN3CCC(NC(=O)c4cc5ccccc5[nH]4)CC3)c2c1', 96),
  ('CC(C)(C)c1ccc(CN2CCCCC(NC(=O)c3cc(-c4ccccc4Cl)cs3)C2)cc1 (stereo not given)', 101),
  ('N#Cc1cccc(CN(Cc2ccc(Cl)c(Cl)c2)S(=O)(=O)c2cccc([N+](=O)[O-])c2)c1', 100),
  ('Cc1ccc2c(c1C)NC(=O)C21NN=C(c2ccccc2)S1 (stereo not given)', 97),
  ('O=C(Nc1cccc(CN2CCCN(Cc3ccc(O)cc3)CC2)c1)c1cc2ccccc2s1', 100),
  ('CC1(C)N=C(N)N=C(N)N1OCCNCc1ccc(Cl)cc1', 95),
  ('COc1cccc2cc(C(=O)N[C@@H](CC(C)C)C(=O)N[C@H](/C=N/N3CCCC3=O)Cc3ccccc3)oc12', 96),
  ('COc1ccc(S(=O)(=O)NCCC2CCN(CCCCCNC(=O)C=Cc3ccc(Cl)c(Cl)c3)CC2)cc1', 87),
  ('N#Cc1ccc2c(c1)CCN(CCCn1c(-c3ccc4ccccc4c3)nc3ccncc31)CC2', 102),
  ('COc1ccc2ncc(F)c(CCN3C[C@H](CNCc4ccccc4)[C@H](O)C3)c2n1', 89),
  ('CCCc1cc(Cc2cnc(N)nc2N)cc(CC)c1O', 87),
  ('O=C(Cc1cccc(OCCCN(Cc2cccc(C(F)(F)F)c2Cl)CC(c2ccccc2)c2ccccc2)c1)NCc1ccco1', 94),
  ('CCn1c(C)cc(C=C2SC(=Nc3ccccc3)NC2=O)c1C', 90),
  ('Cc1cccc(OC(C)C(=O)Nc2cc(C(F)(F)F)ccc2N2CCOCC2)c1 (stereo not given)', 100),
  ('COc1cc(-c2nc3ccc(N4CCN(C)CC4)cc3[nH]2)cc(OC)c1OC', 87),
  ('O=c1cc(NCCCNC2CCc3c(Cl)cc(Cl)cc32)[nH]c2ccccc12 (stereo not given)', 100),
  ('O=C(c1cc2nc3c(c(C(F)(F)F)n2n1)CCc1ccccc1-3)N1CCN2CCCC2C1 (stereo not given)', 94),
  ('O=C(/C=C/c1ccc(Cl)c(Cl)c1)NCCCCCN1CCC(NC(=O)Nc2ccc(Cl)cc2F)CC1', 101),
  ('COCCNCc1ccc(-c2cccc(CNc3ccc(OC)cc3)c2)cc1', 94);
